- TARGET_OR_SYSTEM: Integrin alpha-IIb/beta-3 (Homo sapiens, UniProt P08514+P05106)
- Sequence (P05106 27-788 limits assumed): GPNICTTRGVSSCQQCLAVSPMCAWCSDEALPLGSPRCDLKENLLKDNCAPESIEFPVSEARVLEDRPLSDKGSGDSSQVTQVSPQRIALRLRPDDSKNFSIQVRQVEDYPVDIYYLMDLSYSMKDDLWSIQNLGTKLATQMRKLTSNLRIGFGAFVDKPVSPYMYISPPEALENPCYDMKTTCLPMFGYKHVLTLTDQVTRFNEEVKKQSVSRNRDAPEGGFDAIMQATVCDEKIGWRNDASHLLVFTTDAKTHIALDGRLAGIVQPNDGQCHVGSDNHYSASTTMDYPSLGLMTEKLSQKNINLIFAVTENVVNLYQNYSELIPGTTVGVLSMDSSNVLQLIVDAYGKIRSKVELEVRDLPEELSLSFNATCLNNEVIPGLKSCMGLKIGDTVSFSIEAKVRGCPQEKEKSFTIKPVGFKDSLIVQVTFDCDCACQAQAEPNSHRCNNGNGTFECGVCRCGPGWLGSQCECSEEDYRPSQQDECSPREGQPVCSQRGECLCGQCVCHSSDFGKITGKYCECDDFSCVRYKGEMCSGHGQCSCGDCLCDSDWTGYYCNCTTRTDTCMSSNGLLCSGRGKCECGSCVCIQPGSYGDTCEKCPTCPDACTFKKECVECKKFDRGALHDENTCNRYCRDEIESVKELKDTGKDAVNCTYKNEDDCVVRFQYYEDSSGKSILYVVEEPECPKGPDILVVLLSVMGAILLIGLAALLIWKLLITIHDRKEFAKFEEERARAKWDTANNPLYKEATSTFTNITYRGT
- Sequence (P08514 32-887 limits assumed): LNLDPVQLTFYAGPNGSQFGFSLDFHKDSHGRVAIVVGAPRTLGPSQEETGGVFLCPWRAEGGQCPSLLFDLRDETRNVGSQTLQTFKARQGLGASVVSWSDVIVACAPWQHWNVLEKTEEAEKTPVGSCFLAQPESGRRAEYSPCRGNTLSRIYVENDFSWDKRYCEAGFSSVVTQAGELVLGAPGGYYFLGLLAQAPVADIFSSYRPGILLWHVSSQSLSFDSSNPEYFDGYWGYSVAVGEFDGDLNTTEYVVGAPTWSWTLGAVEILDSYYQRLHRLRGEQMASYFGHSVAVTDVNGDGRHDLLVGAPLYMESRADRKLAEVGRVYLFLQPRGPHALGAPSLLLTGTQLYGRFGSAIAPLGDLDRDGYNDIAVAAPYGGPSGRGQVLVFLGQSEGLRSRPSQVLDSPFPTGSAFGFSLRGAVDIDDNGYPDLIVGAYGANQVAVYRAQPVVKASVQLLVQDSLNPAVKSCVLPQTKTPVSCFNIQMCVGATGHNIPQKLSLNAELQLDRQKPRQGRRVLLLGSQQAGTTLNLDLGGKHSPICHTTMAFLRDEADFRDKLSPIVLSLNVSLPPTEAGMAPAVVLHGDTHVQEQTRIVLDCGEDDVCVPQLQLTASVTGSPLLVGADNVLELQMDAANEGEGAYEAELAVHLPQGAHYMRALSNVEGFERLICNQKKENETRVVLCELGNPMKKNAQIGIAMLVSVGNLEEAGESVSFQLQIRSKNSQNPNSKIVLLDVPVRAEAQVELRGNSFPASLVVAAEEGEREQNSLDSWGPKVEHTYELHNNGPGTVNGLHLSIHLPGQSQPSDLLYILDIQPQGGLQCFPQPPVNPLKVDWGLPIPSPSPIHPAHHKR
- Sequence (P08514 891-1039 limits assumed): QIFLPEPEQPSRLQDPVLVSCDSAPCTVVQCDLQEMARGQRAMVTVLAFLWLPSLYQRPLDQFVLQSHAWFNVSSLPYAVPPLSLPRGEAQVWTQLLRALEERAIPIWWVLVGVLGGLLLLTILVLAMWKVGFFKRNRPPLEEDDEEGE
- ASSAY_METHOD_TEXT: Inhibition of arachidonic acid-induced platelet aggregation
MEASURED_QUANTITY: IC50 (µM)
Answer format: numeric, µM implied, no suffix.

Request: IC50, test system Integrin alpha-IIb/beta-3 (Homo sapiens, UniProt P08514+P05106), entry NCCCCNC(=O)c1cnn(-c2nc(-c3cccc(C(F)(F)F)c3)cs2)c1C(F)(F)F
4.5

Notebook entry, Integrin alpha-IIb/beta-3 (Homo sapiens, UniProt P08514+P05106) assay: IC50 of NCCCNC(=O)c1cnn(-c2nc(-c3cccc(C(F)(F)F)c3)cs2)c1C(F)(F)F = ?
3.7

Report IC50 for COc1ccc(CCNC(=O)C(CC(=O)O)NC(=O)CCCCCCCNC(=N)N)cc1 (stereo not drawn) tested on Integrin alpha-IIb/beta-3 (Homo sapiens, UniProt P08514+P05106).
2.4

Continuing:
API: value(readout= IC50, system= Integrin alpha-IIb/beta-3 (Homo sapiens, UniProt P08514+P05106), query= CCCNCCCNC(=O)c1cnn(-c2nc(-c3cccc(C(F)(F)F)c3)cs2)c1C(F)(F)F )
4.1

Form field: IC50 recorded for O=C(NCCCN1CCCCC1)c1cnn(-c2nc(-c3cccc(C(F)(F)F)c3)cs2)c1C(F)(F)F with Integrin alpha-IIb/beta-3 (Homo sapiens, UniProt P08514+P05106) (enter value)
12

Lookup: IC50 / Integrin alpha-IIb/beta-3 (Homo sapiens, UniProt P08514+P05106) / CCN(CC)CCCNC(=O)c1cnn(-c2nc(-c3cccc(C(F)(F)F)c3)cs2)c1C(F)(F)F
0.4

Please provide the recorded IC50 for CC(=O)Oc1ccccc1C(=O)O , tested on Integrin alpha-IIb/beta-3 (Homo sapiens, UniProt P08514+P05106).
5

Record lookup: for Integrin alpha-IIb/beta-3 (Homo sapiens, UniProt P08514+P05106), what IC50 belongs to CCN(CC)CCCNC(=O)c1cnn(-c2nc(-c3cccc(C(F)(F)F)c3)c(Br)s2)c1C(F)(F)F ?
2.1

---

- TARGET_OR_SYSTEM: Integrin alpha-IIb/beta-3 (Homo sapiens, UniProt P08514+P05106)
- ASSAY_METHOD_TEXT: Inhibition of collagen-induced platelet aggregation
MEASURED_QUANTITY: pIC50
pIC50 here: minus log base 10 of the concentration, concentration in moles per litre.

Form entry - test system: Integrin alpha-IIb/beta-3 (Homo sapiens, UniProt P08514+P05106); read-out: pIC50; compound: CCN(CC)CCCNC(=O)c1cnn(-c2nc(-c3cccc(C(F)(F)F)c3)c(Br)s2)c1C(F)(F)F
5.46

Report pIC50 for NCCCNC(=O)c1cnn(-c2nc(-c3cccc(C(F)(F)F)c3)cs2)c1C(F)(F)F tested on Integrin alpha-IIb/beta-3 (Homo sapiens, UniProt P08514+P05106).
5.52

Find the measured pIC50: item CCN(CC)CCCNC(=O)c1cnn(-c2nc(-c3cccc(C(F)(F)F)c3)cs2)c1C(F)(F)F , target or system Integrin alpha-IIb/beta-3 (Homo sapiens, UniProt P08514+P05106).
5.60

Query for Integrin alpha-IIb/beta-3 (Homo sapiens, UniProt P08514+P05106): what pIC50 does the record show for NCCCCNC(=O)c1cnn(-c2nc(-c3cccc(C(F)(F)F)c3)cs2)c1C(F)(F)F ?
7.00

For the record CCCNCCCNC(=O)c1cnn(-c2nc(-c3cccc(C(F)(F)F)c3)cs2)c1C(F)(F)F , what value of pIC50 is listed for Integrin alpha-IIb/beta-3 (Homo sapiens, UniProt P08514+P05106)?
5.46

Others:
Given the entry O=C(NCCCN1CCCCC1)c1cnn(-c2nc(-c3cccc(C(F)(F)F)c3)cs2)c1C(F)(F)F , what pIC50 was observed with Integrin alpha-IIb/beta-3 (Homo sapiens, UniProt P08514+P05106)?
5.52

---

- TARGET_OR_SYSTEM: Integrin alpha-IIb/beta-3 (Homo sapiens, UniProt P08514+P05106)
- ASSAY_METHOD_TEXT: Inhibition of thrombin-induced platelet aggregation at 50 uM
MEASURED_QUANTITY: pIC50
The meaning of pIC50 here: minus log10 of the concentration in molar units.

Fill blank: measured pIC50 of the compound NCCNC(=O)c1cnn(-c2nc(-c3cccc(C(F)(F)F)c3)cs2)c1C(F)(F)F is ____.
4.95
